testSystem: UniProt Q13191
Sequence (Q13191 40-426): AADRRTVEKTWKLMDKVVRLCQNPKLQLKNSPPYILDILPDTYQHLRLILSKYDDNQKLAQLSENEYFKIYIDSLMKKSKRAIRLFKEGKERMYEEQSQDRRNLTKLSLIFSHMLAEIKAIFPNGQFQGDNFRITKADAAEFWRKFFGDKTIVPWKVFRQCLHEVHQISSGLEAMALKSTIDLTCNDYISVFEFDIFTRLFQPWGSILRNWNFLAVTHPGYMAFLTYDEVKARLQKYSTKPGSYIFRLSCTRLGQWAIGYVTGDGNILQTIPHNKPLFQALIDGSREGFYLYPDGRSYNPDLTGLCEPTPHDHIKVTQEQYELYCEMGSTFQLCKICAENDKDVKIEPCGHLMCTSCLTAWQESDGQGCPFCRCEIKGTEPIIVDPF
assayName: Cbl-b LCK Ub TR-FRET assay (Cbl-b Lck HTRF)
Assay type: biochemical
runConditions: Cbl-b LCK Ub TR-FRET
pIC50: −log10 of the molar value.
measureName: pIC50

Here is how some compounds turned out for pIC50.
compound: Cn1cnnc1C1(c2cccc(N3Cc4c(cc([C@@H](CO)NC5(C)CCC5)cc4C(F)(F)F)C3=O)c2)CCC1 (single isomer, unassigned)
valueObserved: 8.31

compound: Cn1cnnc1[C@H](c1cccc(N2Cc3c(cc(CNC4(C)CCC4)cc3C(F)(F)F)C2=O)c1)N1CC(F)(F)C1 (single isomer, unassigned)
valueObserved: 6.00

[P] C[C@@H]1C[C@@](c2cccc(N3Cc4c(cc(CNC5(C)CCC5)cc4C(F)(F)F)C3=O)c2)(c2nncn2C)O1
[Q] CO[C@H]1C[C@@](c2cc(NC(C)C)cc(N3Cc4c(cc(CNC5(C)CCC5)cc4C(F)(F)F)C3=O)c2)(c2nncn2C)C1
[R] Cn1cnnc1[C@H](c1ccccc1)c1cccc(N2Cc3c(Cl)cc(CNC4(C)CCC4)cc3C2=O)c1 (single isomer, unassigned)
[S] Cn1ccnc1[C@H](c1cccc(N2Cc3c(cc(CNC4(C)CCC4)cc3C(F)(F)F)C2=O)c1)C1COC1 (single isomer, unassigned)
Please list the entries, largest pIC50 first. Put the labels in the requested order and list them out.
Q, P, R, S
